All figures here come from patent US20230212244A1.

MEASURED ON: T1, HLA-A*02:01 (human)
T1 construct: MHC class I monomer made peptide-receptive by UV cleavage of a UV-sensitive ligand; also called peptide-receptive MHC molecules
MEASUREMENT NOTES: UV-ligand exchange ELISA (anti-β2m), peptide exchange yield grade
MEASUREMENT LABEL: peptide exchange yield

QUERY: Dear colleague, I am looking for the recorded peptide exchange yield of the following binder: LLFDAPDLRL [peptide LLFDAPDLRL (SEQ ID NO: 87)]
RESULT: 50 to 75%

QUERY: Dear colleague, I am looking for the recorded peptide exchange yield of the following binder: YLLDYPNNLL [peptide YLLDYPNNLL (SEQ ID NO: 72)]
RESULT: 50 to 75%

QUERY: Dear colleague, I am looking for the recorded peptide exchange yield of the following binder: YLIGEKQHYL [peptide YLIGEKQHYL (SEQ ID NO: 76)]
RESULT: 50 to 75%

QUERY: Dear colleague, I am looking for the recorded peptide exchange yield of the following binder: SLAELVPGVGGI [peptide SLAELVPGVGGI (SEQ ID NO: 108)]
RESULT: 50 to 75%

QUERY: Dear colleague, I am looking for the recorded peptide exchange yield of the following binder: EMIENIQSV [peptide EMIENIQSV (SEQ ID NO: 75)]
RESULT: 20 to 50%

QUERY: Dear colleague, I am looking for the recorded peptide exchange yield of the following binder: SMVEDITGLRL [peptide SMVEDITGLRL (SEQ ID NO: 84)]
RESULT: 50 to 75%

QUERY: Dear colleague, I am looking for the recorded peptide exchange yield of the following binder: RLLGEEVVRV (also called RLLGEEVVRV) [peptide … (SEQ ID NO: 155)]
RESULT: 50 to 75%

QUERY: Dear colleague, I am looking for the recorded peptide exchange yield of the following binder: VLFTDEGVPKFL [peptide VLFTDEGVPKFL (SEQ ID NO: 56)]
RESULT: 20 to 50%
